Provide the reported AUC(0-t) of each item.
experiment: Evaluation of oral absorbability; assay type: in vivo, BALB/cA mice; details: mouse; plasma, oral 50 mg/kg/day, BALB/cA mice
// return numeric value only (unit: µM·h, not printed)

Using the record for C=CC(=O)N1C[C@H](n2c(C#CC3CC3)c(C(=O)N[C@H](C)c3ccccc3)c3c(N)ncnc32)C[C@@H]1COC , report its AUC(0-t). 15

One more compound: C=CC(=O)N1C[C@H](n2c(C#CC(C)(C)OC)c(C(=O)N[C@H](C)c3ccccc3)c3c(N)ncnc32)C[C@@H]1C 18

One more compound: C=CC(=O)N1C[C@H](n2c(C#CC(C)C)c(C(=O)NC(C)(C)c3ccccc3F)c3c(N)ncnc32)C[C@@H]1C 34

---

test: Evaluation of oral absorbability; type: in vivo, BALB/cA mice; details: mouse; plasma, oral 50 mg/kg/day, BALB/cA mice
Provide the reported AUC(0-t) of each item.
// return numeric value only (unit: µM·h, not printed)

Using the record for C=CC(=O)N1C[C@H](n2c(C#CC)c(C(=O)NC(C)(C)c3ccccc3F)c3c(N)ncnc32)C[C@@H]1C , report its AUC(0-t). 20

One more molecule: C=CC(=O)N1C[C@H](n2c(C#CC3CC3)c(C(=O)N[C@H](C)c3ccccc3)c3c(N)ncnc32)C[C@@H]1COCC 6.1

One more molecule: C=CC(=O)N1C[C@H](n2c(C#CC(C)(C)C)c(C(=O)N[C@H](C)c3ccccc3)c3c(N)ncnc32)C[C@@H]1C 36

One more molecule: C=CC(=O)N1C[C@H](n2c(C#CC3CC3)c(C(=O)N[C@H](C)c3cccc(F)c3F)c3c(N)ncnc32)C[C@@H]1C 50

One more molecule: C=CC(=O)N1C[C@H](n2c(C#CC3CC3)c(C(=O)NC(C)(C)c3ccccc3)c3c(N)ncnc32)C[C@@H]1C 51

---

Provide the reported IC50 of each item.
target: HER2 exon 20 insertion mutant (HER2ex20insYVMA, A775_G776insYVMA) (Homo sapiens, UniProt P04626, DUP772-775); assay: Inhibitory action (in vitro) against HER2 exon 20 insertion mutant phosphorylation activity; conditions: 30 min pre-incubation, ATP 200 μM, 25° C. 220 minutes
Sequence (P04626 with tags, fused parts or gaps DUP772-775): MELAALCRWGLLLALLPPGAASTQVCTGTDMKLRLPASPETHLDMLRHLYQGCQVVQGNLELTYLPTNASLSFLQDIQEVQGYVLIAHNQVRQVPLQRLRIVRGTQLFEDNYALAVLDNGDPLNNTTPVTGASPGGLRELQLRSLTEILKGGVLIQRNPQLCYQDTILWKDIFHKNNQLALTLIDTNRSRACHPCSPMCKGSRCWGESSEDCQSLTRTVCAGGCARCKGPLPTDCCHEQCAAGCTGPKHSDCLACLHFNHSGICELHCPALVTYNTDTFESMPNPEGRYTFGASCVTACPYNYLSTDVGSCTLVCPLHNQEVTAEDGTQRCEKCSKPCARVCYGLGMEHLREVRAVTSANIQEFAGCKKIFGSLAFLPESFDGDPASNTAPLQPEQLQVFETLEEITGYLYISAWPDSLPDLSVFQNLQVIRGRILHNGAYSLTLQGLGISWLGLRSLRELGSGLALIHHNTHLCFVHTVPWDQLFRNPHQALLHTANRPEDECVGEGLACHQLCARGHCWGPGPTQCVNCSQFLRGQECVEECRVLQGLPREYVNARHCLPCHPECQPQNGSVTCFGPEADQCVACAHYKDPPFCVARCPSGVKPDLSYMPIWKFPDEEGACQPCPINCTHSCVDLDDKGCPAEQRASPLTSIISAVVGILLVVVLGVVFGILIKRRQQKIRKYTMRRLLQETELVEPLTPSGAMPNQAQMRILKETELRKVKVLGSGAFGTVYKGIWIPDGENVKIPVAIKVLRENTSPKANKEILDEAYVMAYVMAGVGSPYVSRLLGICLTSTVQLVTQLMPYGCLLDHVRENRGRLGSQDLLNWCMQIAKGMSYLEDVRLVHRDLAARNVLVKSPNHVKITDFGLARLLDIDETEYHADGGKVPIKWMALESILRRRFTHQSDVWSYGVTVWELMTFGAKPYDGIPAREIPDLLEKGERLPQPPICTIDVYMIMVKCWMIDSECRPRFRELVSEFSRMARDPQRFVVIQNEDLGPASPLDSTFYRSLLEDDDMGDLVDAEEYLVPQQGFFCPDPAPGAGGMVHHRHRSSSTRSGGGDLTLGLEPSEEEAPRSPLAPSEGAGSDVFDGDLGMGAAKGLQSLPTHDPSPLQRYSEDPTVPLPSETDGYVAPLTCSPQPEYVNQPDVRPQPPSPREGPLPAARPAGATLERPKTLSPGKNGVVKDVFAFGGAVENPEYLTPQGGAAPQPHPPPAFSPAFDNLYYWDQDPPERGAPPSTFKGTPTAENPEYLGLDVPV

Using the record for C=CC(=O)N1C[C@H](n2c(C#CC3CC3)c(C(=O)N[C@H](C)c3cccc(F)c3F)c3c(N)ncnc32)C[C@@H]1C [Example 10] , report its IC50. < 0.3 nM

One more compound: CC#Cc1c(C(=O)N[C@H](C)c2ccccc2)c2c(N)ncnc2n1[C@@H]1C[C@H](C)N(C(=O)/C=C/C)C1 [Comp. Ex. 6] > 10000 nM

One more compound: C=CC(=O)N1C[C@H](n2c(C#CC)c(C(=O)N[C@H](C)c3cc(F)cc(F)c3)c3c(N)ncnc32)C[C@@H]1C [Example 1] 0.34 nM

One more compound: C=CC(=O)N1C[C@H](n2c(C#CC)c(C(=O)NC(C)(C)c3ccccc3F)c3c(N)ncnc32)C[C@@H]1C [Example 5] 0.38 nM

One more compound: C=CC(=O)N1C[C@H](n2c(C#CC)c(C(=O)N(C)[C@H](C)c3ccccc3)c3c(N)ncnc32)C[C@@H]1C [Comp. Ex. 5] 14 nM

One more compound: C=CC(=O)N1C[C@H](n2c(C#CCC)c(C(=O)N[C@H](C)c3ccccc3)c3c(N)ncnc32)C[C@@H]1C [Example 14] < 0.3 nM

---

molecular target: Ba/F3-HER2insYVMA cells (Homo sapiens, UniProt P04626, DUP772-775, cells depend on it); test: Growth inhibitory activity against HER2 exon 20 insertion mutant expressing cell line; assay type: cell-based, mouse; conditions: 3 days, CellTiter-Glo 2.0, read-out: HER2ex20insYVMA cell growth inhibitory activity IC50 value
Sequence (P04626 with tags, fused parts or gaps DUP772-775): as above
Provide the reported log10 GI50 of each item.
A difference of one corresponds to tenfold GI50; all values are log10 with GI50 in nM.

Provide the documented log10 GI50 with Ba/F3-HER2insYVMA cells (Homo sapiens, UniProt P04626, DUP772-775, cells depend on it) as the system for C=CC(=O)N1C[C@H](n2c(C#CCC)c(C(=O)N[C@H](C)c3ccccc3)c3c(N)ncnc32)C[C@@H]1C 1.43

One more compound: C=CC(=O)N1C[C@H](n2c(C#CC)c(C(=O)N[C@H](C)c3ccccc3)c3c(N)ncnc32)C[C@@H]1C 1.08

One more compound: C=CC(=O)N1C[C@H](n2c(C#CC)c(C(=O)N[C@H](C)c3cccc(Cl)c3)c3c(N)ncnc32)C[C@@H]1C 1.45

One more compound: C=CC(=O)N1C[C@H](n2c(C#CC)c(C(=O)NC(C)(C)c3ccccc3)c3c(N)ncnc32)C[C@@H]1C 1.40

One more compound: C=CC(=O)N1C[C@H](n2nc(C(=O)Nc3ccc(CC(=O)N(C)C)c(C)c3C)c3c(N)ncnc32)C[C@@H]1C [Comp. Ex. 2, reference compound] 3.28

One more compound: C=CC(=O)N1C[C@H](n2c(C#CC(C)(C)C)c(C(=O)N[C@H](C)c3ccccc3)c3c(N)ncnc32)C[C@@H]1C 1.63

One more compound: C=CC(=O)N1C[C@H](n2c(C#CC)c(C(=O)N(C)[C@H](C)c3ccccc3)c3c(N)ncnc32)C[C@@H]1C 3.11

One more compound: C=CC(=O)N1C[C@H](n2c(C#CC3CC3)c(C(=O)N[C@H](C)c3cccc(F)c3F)c3c(N)ncnc32)C[C@@H]1C 1.46

One more compound: C=CC(=O)N1C[C@H](n2c(C#CC)c(C(=O)NCC3CCCCC3)c3c(N)ncnc32)C[C@@H]1C 3.53

One more compound: C=CC(=O)N1C[C@H](n2c(C#CC(C)C)c(C(=O)NC(C)(C)c3ccccc3F)c3c(N)ncnc32)C[C@@H]1C 1.60

One more compound: C=CC(=O)N1C[C@H](n2c(C#CC)c(C(=O)N[C@H](C)c3ccccc3)c3c(N)ncnc32)C[C@@H]1CC 0.99

One more compound: C=CC(=O)N1C[C@H](n2c(C#CC3CC3)c(C(=O)N[C@H](C)c3ccccc3)c3c(N)ncnc32)C[C@@H]1COCC 1.70

One more compound: C=CC(=O)N1C[C@H](n2c(C#CC)c(C(=O)NCc3ccccc3C)c3c(N)ncnc32)C[C@@H]1C 2.95

---

target: HER2 exon 20 insertion mutant (HER2ex20insYVMA, A775_G776insYVMA) (Homo sapiens, UniProt P04626, DUP772-775); test: Inhibitory action (in vitro) against HER2 exon 20 insertion mutant phosphorylation activity; conditions: 30 min pre-incubation, ATP 200 μM, 25° C. 220 minutes
recorded endpoint: pIC50
// pIC50 is dimensionless: -log10 of concentration (M)

Using the record for C=CC(=O)N1C[C@H](n2c(C#CC3CC3)c(C(=O)N[C@H](C)c3ccccc3)c3c(N)ncnc32)C[C@@H]1COCC , report its pIC50. 8.96

One more molecule: C=CC(=O)N1C[C@H](n2c(C#CC3CC3)c(C(=O)NC(C)(C)c3ccccc3)c3c(N)ncnc32)C[C@@H]1C 9.49

One more molecule: C=CC(=O)N1C[C@H](n2nc(C(=O)Nc3ccc(CC(=O)N(C)C)c(C)c3C)c3c(N)ncnc32)C[C@@H]1C [Comp. Ex. 2, reference compound] 8.36

One more molecule: C=CC(=O)N1C[C@H](n2c(C#CC)c(C(=O)NCc3ccccc3C)c3c(N)ncnc32)C[C@@H]1C 7.96

One more molecule: C=CC(=O)N1C[C@H](n2c(C#CC)c(C(=O)NCC3CCCCC3)c3c(N)ncnc32)C[C@@H]1C 6.42

One more molecule: C=CC(=O)N1C[C@H](n2c(C#CC)c(C(=O)N[C@H](C)c3ccc(F)cc3F)c3c(N)ncnc32)C[C@@H]1C 9.41

One more molecule: C=CC(=O)N1C[C@H](n2c(C#CC(C)(C)OC)c(C(=O)N[C@H](C)c3ccccc3)c3c(N)ncnc32)C[C@@H]1C 9.36

One more molecule: C=CC(=O)N1C[C@H](n2c(C#CC(C)(C)C)c(C(=O)N[C@H](C)c3ccccc3)c3c(N)ncnc32)C[C@@H]1C 9.41

One more molecule: C=CC(=O)N1C[C@H](n2c(C#CC3CC3)c(C(=O)N[C@H](C)c3ccccc3)c3c(N)ncnc32)C[C@@H]1CC 9.27

One more molecule: C=CC(=O)N1C[C@H](n2c(C#CC)c(C(=O)N[C@H](CC)c3ccccc3)c3c(N)ncnc32)C[C@@H]1C 9.43

One more molecule: C=CC(=O)N1C[C@H](n2c(C#CC(C)C)c(C(=O)NC(C)(C)c3ccccc3F)c3c(N)ncnc32)C[C@@H]1C 9.38

One more molecule: C=CC(=O)N1C[C@H](n2c(C#CC)c(C(=O)N[C@H](C)c3ccccc3)c3c(N)ncnc32)C[C@@H]1CC 9.36
